Reference source: ChEMBL document CHEMBL4130356

System: Pseudomonas aeruginosa
PARTICULARS: RCMB 010043, 100 ug/ml
Description: Antimicrobial activity against Pseudomonas aeruginosa RCMB 010043 assessed as diameter of zone inhibition at 100 ug/ml after 24 hrs by agar well diffusion assay
Active and inactive are the calls of the source. The calls are words filed in the database; no cut-off is given here.
PROPERTY_NAME: DIZ

>>> df
                           substance_smiles  property_name  value_measured
0  Cc1nc(-c2cccc(Cl)c2)ccc1C(=O)N/N=C/c1ccc(Cl)cc1Cl            DIZ        inactive
1  COc1ccc(/C=N/NC(=O)c2ccc(-c3cccc(Cl)c3)nc2C)cc1OC            DIZ        inactive
2  O=C(N/N=C/c1ccc(Cl)cc1Cl)c1c[nH]c2ccc(Cl)cc2c1=O            DIZ        inactive
3  COc1ccc(/C=N/NC(=O)c2c[nH]c3cc(Cl)ccc3c2=O)cc1OC            DIZ        inactive
4  O=C(N/N=C/c1ccc(Cl)cc1Cl)c1c[nH]c2cc(Cl)ccc2c1=O            DIZ        inactive

Query: Name the reported DIZ value associated with the molecule COc1ccc(OC)c(/C=N/NC(=O)c2ccc(-c3cccc(Cl)c3)nc2C)c1
Result: inactive

Query: Can you look up the measured DIZ of COc1ccc(/C=N/NC(=O)c2ccc(-c3cccc(Cl)c3)nc2C)cc1 for me?
Result: inactive

Query: Look up DIZ for this molecule: COc1cc(/C=N/NC(=O)c2c[nH]c3ccc(Cl)cc3c2=O)cc(OC)c1OC
Result: inactive

Query: I would be grateful if you could share the reported DIZ for Cc1nc(-c2ccc(Cl)cc2)ccc1C(=O)N/N=C/c1ccc(Cl)cc1Cl .
Result: inactive

Query: Need DIZ, item Cc1ccc(/C=N/NC(=O)c2c[nH]c3cc(Cl)ccc3c2=O)cc1
Result: inactive

---

ASSAY_PROCEDURE: Selectivity index, ratio of IC50 for human WI38 cells to MIC for Mycobacterium tuberculosis RCMB 010126 clinical isolate
Type: toxicity
PARTICULARS: read-out: Selectivity Index
Tick MET if selectivity ratio is 300 or greater. Tick NOT MET if selectivity ratio is less than 300.

Query: Has COc1ccc(/C=N/NC(=O)c2ccc(-c3cccc(Cl)c3)nc2C)cc1OC a recorded selectivity ratio greater than or equal to 300?
Result: NOT MET

Query: Quick check: does Cc1nc(-c2ccc(Cl)cc2)ccc1C(=O)N/N=C/c1ccc(O)cc1 have selectivity ratio greater than or equal to 300?
Result: NOT MET

Query: Form field: selectivity ratio at least 300? Entry: COc1ccc(/C=N/NC(=O)c2ccc(-c3cccc(Cl)c3)nc2C)cc1
Result: MET

Query: Can COc1ccc(OC)c(/C=N/NC(=O)c2ccc(-c3ccc(Cl)cc3)nc2C)c1 be said to have selectivity ratio at or above 300?
Result: MET

Query: Item COc1cc(/C=N/NC(=O)c2ccc(-c3ccc(Cl)cc3)nc2C)cc(OC)c1OC with selectivity ratio of 300 or above?
Result: NOT MET

Query: State whether the measured selectivity ratio reaches 300, counting equality as reaching it, for COc1cccc(/C=N/NC(=O)c2ccc(-c3ccc(Cl)cc3)nc2C)c1O
Result: MET

Query: Quick check: does COc1ccc(OC)c(/C=N/NC(=O)c2ccc(-c3cccc(Cl)c3)nc2C)c1 have selectivity ratio greater than or equal to 300?
Result: MET

Query: Could you verify whether the entry COc1ccc(/C=N/NC(=O)c2ccc(-c3ccc(Cl)cc3)nc2C)cc1 shows selectivity ratio of no less than 300?
Result: MET

Query: Form field: selectivity ratio at least 300? Entry: Cc1ccc(/C=N/NC(=O)c2ccc(-c3cccc(Cl)c3)nc2C)cc1
Result: MET

Query: Decide: is the reported value of selectivity ratio for COc1cc(/C=N/NC(=O)c2ccc(-c3cccc(Cl)c3)nc2C)cc(OC)c1OC equal to or greater than 300?
Result: MET

Query: Item COc1ccc(/C=N/NC(=O)c2ccc(-c3ccc(Cl)cc3)nc2C)cc1OC with selectivity ratio of 300 or above?
Result: NOT MET
